# Experimental Protocol: chemical genetic growth profiling, strain panel (AID 1159580);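 further: tested at 20 µM; growth read once vehicle control cultures reached saturation at 30 °C; 1 = growth at the plate median or of vehicle wells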
# Condition Info: S. cerevisiae deletion strains, growth OD, locus YML032C, strain rad52, stronger effect = lower value
About 2,000 (36%) of roughly 5,500 compounds were called active. Not shown: some 18% with an inconclusive outcome. This is one part of the list.
normalized growth: recorded values

{"Compound": "CC(=O)O[C@H]1C[C@H](O[C@H]2[C@@H](O)C[C@H](O[C@H]3[C@@H](O)C[C@H](O[C@H]4CC[C@@]5(C)C(CCC6C5C[C@@H](O)[C@]5(C)[C@@H](C7=CC(=O)OC7)CC[C@]65O)C4)O[C@@H]3C)O[C@@H]2C)O[C@H](C)[C@H]1O[C@@H]1O[C@H](CO)[C@@H](O)[C@H](O)[C@H]1O (stereo partly drawn)", "normalized growth": 0.991}
{"Compound": "CCCN1C[C@H](CSC)C[C@@H]2c3cccc4[nH]cc(c34)C[C@H]21", "normalized growth": 1.03}
{"Compound": "CCN(CCCCOC(=O)c1ccc(OC)c(OC)c1)C(C)Cc1ccc(OC)cc1 (stereo not drawn)", "normalized growth": 1}

###

# Experimental Protocol: chemical genetic growth profiling, strain panel (AID 1159580);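 further: tested at 20 µM; growth read once vehicle control cultures reached saturation at 30 °C; 1 = growth at the plate median or of vehicle wells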
# Condition Info: S. cerevisiae deletion strains, growth OD, locus YKR026C, strain gcn3
The campaign covered roughly 5,500 compounds. About 2,000 (36%) were called active. Roughly 18% stayed inconclusive and do not appear here. No stated cut-off is given here; in the data, active means normalized growth mostly below about 0.91 (no sharp cut-off); inconclusive means no clear call, values can overlap the other calls; inactive means mostly above about 0.92. This is one part of the list.
Labels: active, inactive

{"Compound": "Nc1ccc(C(=O)Oc2ccccc2)c(O)c1", "Classification": "active"}
{"Compound": "CC(=O)Nc1ccc(O)cc1", "Classification": "inactive"}
{"Compound": "CC(=O)Nc1cccc(O)c1", "Classification": "inactive"}
{"Compound": "CCC(/C=C/[C@@H](C)[C@H]1CCC2C3CC=C4C[C@@H](O)CC[C@]4(C)C3CC[C@@]21C)C(C)C (some centres undefined)", "Classification": "inactive"}
{"Compound": "CC(=O)[C@H]1CCC2C3CC=C4C[C@@H](O)CC[C@]4(C)C3CC[C@@]21C (some centres undefined)", "Classification": "inactive"}
{"Compound": "CC(=O)[C@H]1CCC2C3CC=C4C[C@@H](OC(=O)CCC(=O)O)CC[C@]4(C)C3CC[C@@]21C (some centres undefined)", "Classification": "inactive"}
{"Compound": "CCC(CCC(C)[C@H]1CCC2C3CC=C4C[C@@H](O)CC[C@]4(C)C3CC[C@@]21C)C(C)C (some centres undefined)", "Classification": "inactive"}
{"Compound": "CC(=O)OCC(=O)[C@H]1CCC2C3CC=C4C[C@@H](O)CC[C@]4(C)C3CC[C@@]21C (some centres undefined)", "Classification": "inactive"}
{"Compound": "Nc1ccc(C(=O)O)c(O)c1", "Classification": "inactive"}

###

# Experimental Protocol: chemical genetic growth profiling, strain panel (AID 1159580);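 further: tested at 20 µM; growth read once vehicle control cultures reached saturation at 30 °C; 1 = growth at the plate median or of vehicle wells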
# Condition Info: S. cerevisiae deletion strains, growth OD, locus YGR135W, strain pre9, stronger effect = lower value
Among all 5,500 compounds or so, about 2,000 (36%) were called active. Roughly 18% stayed inconclusive and do not appear here. This is one part of the list.

{"Compound": "CC(=O)Nc1ccc(O)cc1", "normalized growth": 0.996}
{"Compound": "COC(=O)C1=C(C)NC(C)=C(C(=O)OC)C1c1ccccc1[N+](=O)[O-]", "normalized growth": 0.799}
{"Compound": "CCN(CCCCOC(=O)c1ccc(OC)c(OC)c1)C(C)Cc1ccc(OC)cc1 (stereo not given)", "normalized growth": 1.02}
{"Compound": "COC(=O)C[C@H]1C(C)(C)C(=O)[C@@H]2CC3=C4CC(OC)O[C@@H](c5ccoc5)[C@]4(C)CCC3[C@@]1(C)C2=O (stereo not given in full)", "normalized growth": 0.99}
{"Compound": "CC[N+]1(C)CCCC(OC(=O)C(O)(c2ccccc2)c2ccccc2)C1 (stereo not given)", "normalized growth": 1.02}
{"Compound": "CC(=O)Nc1cccc(O)c1", "normalized growth": 1.02}
{"Compound": "COc1ccc(C(=O)/C=C/c2ccccc2)cc1", "normalized growth": 0.696}
{"Compound": "CSc1ccc2c(c1)C(N1CCN(C)CC1)Cc1ccccc1S2 (stereo not given)", "normalized growth": 0.753}
{"Compound": "CC(=O)Oc1c(-c2ccccc2)oc2c(CC=C(C)C)c3c(c(OC(C)=O)c2c1=O)C=CC(C)(C)O3", "normalized growth": 1.1}
{"Compound": "Nc1ccc(C(=O)O)c(O)c1 (tested in a mixture with another compound)", "normalized growth": 0.945}
